TGT: dopamine D-2 receptors (Rattus norvegicus)
Construct: striatal tissue is dissected and weighed; from tissue; host or cells: corpus striatum membranes of male Wistar rats
TEST METHOD NOTES: inhibition of 3H-spiperone binding to dopamine D-2 receptors in rat corpus striatum in vitro
CONDITION DETAILS: 3H-spiperone 0.5 nM, rat corpus striatum membranes, in vitro; read-out: Binding IC50, 3H Spi.
Assignment: determine reported log10(IC50) for the given compounds.
Remember, log10 of IC50, in µM.

INSERT INTO measurements (compound, val) VALUES
  ('CC(C)N1CCN(CCN2CCC(c3cn(-c4ccc(F)cc4)c4cc(Cl)ccc34)CC2)C1=S [Compound 13a]', -0.57),
  ('Cc1ccc2c(C3CCN(CCN4CCN(C(C)C)C4=O)CC3)cn(-c3cccs3)c2c1 [Compound 15b]', 0.40);

List the reported log10(IC50) of each compound below.
1. Cc1ccc2c(c1)N(c1ccc(F)cc1)CC2C1CCN(CCN2CCN(C(C)C)C2=O)CC1 (stereo not shown) [Compound 20a]
2. CN(C)CCSc1nc2ccccc2cc1-c1ccccc1 [ICI 169369, reference compound]
3. CC(C)N1CCN(CCN2CCC(c3cn(-c4ccc(F)cc4)c4cc(C(F)(F)F)ccc34)CC2)C1=O
4. COc1ccc2c(C3CCN(CCN4CCOC4=O)CC3)cn(-c3ccc(F)cc3)c2c1
5. Cc1ccc2c(C3CCN(CCN4CCN(C(C)C)C4=O)CC3)cn(-c3ccccc3)c2c1 [Compound 15a]
6. CCN(CCN1CCC(c2cn(-c3ccc(F)cc3)c3cc(Cl)ccc23)CC1)C(=O)NC(C)C

stdout:
[-0.74, -0.31, -0.55, 0.04, -0.30, -0.82]

List the reported log10(IC50) of each compound below.
1. CC(C)N1CCN(CCN2CCC(c3cn(-c4ccc(F)cc4)c4cc(C#N)ccc34)CC2)C1=O
2. CC(C)c1ccc2c(C3CCN(CCN4CCN(C(C)C)C4=O)CC3)cn(-c3ccc(F)cc3)c2c1
3. CC(C)N1CCN(CCN2CCC(c3cn(-c4ccccc4F)c4cc(Cl)ccc34)CC2)C1=O [Compound 15j]

stdout:
1. 0.04
2. 0.30
3. -0.52

List the reported log10(IC50) of each compound below.
1. Cc1ccc2c(N3CCN(CCN4CCN(C(C)C)C4=O)CC3)cn(-c3ccc(F)cc3)c2c1
2. CC(C)N1CCN(CCN2CCC(c3cn(-c4ccc(F)cc4)c4cc(S(C)(=O)=O)ccc34)CC2)C1=O
3. Cc1ccc2c(C3CCN(CCN4CCN(C(C)C)C4=O)CC3)cn(-c3ccccc3F)c2c1 [Compound 15f]
4. Cc1ccc2c(C3CCN(CCN4CCN(C(C)C)C4=O)CC3)cn(-c3ccncc3)c2c1 [Compound 15e]

stdout:
[-0.74, -0.22, -0.14, 0.54]

Notebook: Cc1ccc2c(C3CCN(CCN4CCN(C(C)C)C4=O)CC3)cn(-c3ccsc3)c2c1 [Compound 15c] , log10(IC50) read as 0.00

---

Assignment: determine reported pIC50 for the given molecules.
TGT: dopamine D-2 receptors (Rattus norvegicus, UniProt P61169)
Construct: striatal tissue is dissected and weighed; from tissue; host or cells: corpus striatum membranes of male Wistar rats
Sequence (P61169 whole entry): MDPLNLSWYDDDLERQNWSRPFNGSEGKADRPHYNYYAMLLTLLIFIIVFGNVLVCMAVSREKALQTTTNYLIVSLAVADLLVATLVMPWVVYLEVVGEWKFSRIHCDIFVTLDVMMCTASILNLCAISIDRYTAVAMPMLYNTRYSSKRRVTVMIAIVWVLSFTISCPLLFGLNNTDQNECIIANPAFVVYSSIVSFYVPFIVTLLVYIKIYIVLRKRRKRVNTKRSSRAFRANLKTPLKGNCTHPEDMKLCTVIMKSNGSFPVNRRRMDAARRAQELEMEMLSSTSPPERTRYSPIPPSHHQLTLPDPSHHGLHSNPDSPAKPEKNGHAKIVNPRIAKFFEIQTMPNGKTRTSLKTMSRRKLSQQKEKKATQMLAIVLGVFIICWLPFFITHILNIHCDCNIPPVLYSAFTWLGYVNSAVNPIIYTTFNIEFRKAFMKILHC
TEST METHOD NOTES: inhibition of 3H-spiperone binding to dopamine D-2 receptors in rat corpus striatum in vitro
One number for each entry, as −log10 of the molar value.

List the reported pIC50 of each molecule below.
1. CC(C)N1CCN(CCN2CC=C(c3cn(-c4ccc(F)cc4)c4cc(Cl)ccc34)CC2)C1=O
2. Cc1ccc2c(C3=CCN(CCN4CCN(C(C)C)C4=O)CC3)cn(-c3ccc(F)cc3)c2c1

stdout:
[7.18, 7.17]
